# TARGET DESC: T1, 4H348-bA
# T1 chain: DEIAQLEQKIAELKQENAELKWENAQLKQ
# PROCEDURE SUMMARY: two-hybrid library CCNG1;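 further: natural log of median RNA to DNA barcode read ratio; higher means stronger binding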
MEASURED PARAMETER: interaction score
Hey, just send me the number, nothing else.

Check out these entries, answers already filled in.
binder="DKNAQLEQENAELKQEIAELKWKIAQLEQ [4H3277-bA]" experimental_value=-0.856
binder="DEIAQLEQKIAELEQKNAELKWKNAQLEQ [4H319-bA]" experimental_value=-0.881
binder="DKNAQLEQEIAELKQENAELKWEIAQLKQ [4H3162-bA]" experimental_value=-2.08

// recorded interaction score for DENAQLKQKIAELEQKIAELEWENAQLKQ [4H1828-bA] : -0.144

Notebook: DEIAQLEQKIAELKQENAELKWENAQLKQ [4H348-bA] , interaction score read as 0.473

Entry under test: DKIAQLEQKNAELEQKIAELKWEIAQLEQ [4H2473-bA] . Its interaction score was -1.44

The binder listed as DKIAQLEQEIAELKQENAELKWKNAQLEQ [4H2143-bA] shows interaction score equal to -2.35

Field interaction score (entry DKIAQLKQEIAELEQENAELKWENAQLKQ [4H2588-bA] ) reads 1.27

For this binder ( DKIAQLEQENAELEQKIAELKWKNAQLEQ [4H2223-bA] ), measured interaction score is -1.22

The value of interaction score measured for the binder DKIAQLKQENAELEQENAELKWKIAQLEQ [4H2717-bA] turned out to be -1.06

According to the records, this binder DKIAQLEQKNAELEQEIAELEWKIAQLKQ [4H2438-bA] displays interaction score of 0.0426

interaction score in this record for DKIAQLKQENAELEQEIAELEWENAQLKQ [4H2692-bA] : -1.58

Field interaction score (entry DKIAQLKQKNAELKQKNAELEWEIAQLEQ [4H3057-bA] ) reads -1.57

Entry DKIAQLKQKIAELEQENAELEWKNAQLEQ [4H2839-bA] — recorded interaction score = -0.533
